Entry source: ChEMBL document CHEMBL1139381

Provide the reported CC50 of each item.
assay: Cytotoxicity against human Daudi cells by MTT assay; type: cell-based; conditions: read-out: TC50 (the source's name)
Dear colleague, please return just the value in µM, with no unit written.

Identify measured CC50 associated with FC(F)(F)c1ccc2c(NC(c3ccc(Cl)cc3)c3ccc(CN4CCCC4)cc3)ccnc2c1 (racemic)
14.1

Name the recorded CC50 of the compound listed here: Clc1cccc(C(Nc2ccnc3cc(Cl)ccc23)c2ccc(CN3CCCC3)cc2)c1 (racemic)
34.6

Please look at this compound and report its CC50: Clc1ccc(C(Nc2ccnc3cc(Cl)ccc23)c2ccc(CN3CCCC3)cc2)cc1 (racemic)
8.6

Return the recorded CC50 value; entry: COc1ccc2nc3cc(Cl)ccc3c(NC(c3ccc(Cl)cc3)c3ccc(CN4CCCC4)cc3)c2c1 (racemic)
11.1

Return CC50 (reported value) for this compound: CCN(CC)CCCC(C)Nc1ccnc2cc(Cl)ccc12 (stereo not given)
16.7

###

tested on: Plasmodium falciparum; experiment: Antimalarial activity after 24 hrs against chloroquine-sensitive Plasmodium falciparum 3D7 infected human A+ erythrocytes by [3H]hypoxanthine uptake; type: functional, organism-based
Cut-off 8 nM on IC50: below means Met, at or above means Not met.

Hello, is IC50 of the following molecule strictly smaller than 8 nM? FC(F)(F)c1cc(NC(c2ccc(Cl)cc2)c2ccc(CN3CCCC3)cc2)c2cccc(C(F)(F)F)c2n1 (racemic)
Not met

Quick check: IC50 of Clc1ccc(C(Nc2ccnc3cc(Cl)ccc23)(c2ccccc2)c2ccc(CN3CCCC3)cc2)cc1 (racemic) under 8 nM?
Met

# strict comparison: is reported IC50 < 8 nM? input = COc1ccc2nc3cc(Cl)ccc3c(NC(c3ccc(Cl)cc3)c3ccc(CN4CCCC4)cc3)c2c1 (racemic)
Met

IC50 under 8 nM? Item: Clc1ccc([C@](c2ccccc2)(c2ccc(CN3CCCC3)cc2)n2ccnc2)cc1
Met

In the record for Clc1ccc(C(Nc2ccnc3cc(Cl)ccc23)c2ccc(CN3CCCC3)cc2)cc1 (racemic) , is IC50 less than 8 nM?
Met

Strictly below 8 nM: is that where IC50 of Clc1cccc(C(Nc2ccnc3cc(Cl)ccc23)c2ccc(CN3CCCC3)cc2)c1 (racemic) sits?
Not met
